Source: patent US7928098B2

Here the recorded melting point is given for each entry.
readout: melting point

[[record]]
molecule = "CC1(O)CCN(CC(=O)Nc2nc(-c3ccco3)c(C(=O)C3CCOCC3)s2)CC1 [Compound 451]"
readout = "melting point"
obs_value = "151 to 153 °C"

[[record]]
molecule = "CN1CCN(CC(=O)Nc2nc(-c3ccco3)c(C(=O)c3ccccn3)s2)CC1=O.Cl"
readout = "melting point"
obs_value = "170 to 188 °C"

[[record]]
molecule = "COc1ccc(C(=O)Nc2nc(-c3ccco3)c(C(=O)c3ccccn3)s2)cc1OC [Compound 111]"
readout = "melting point"
obs_value = "169 to 170 °C"

[[record]]
molecule = "Cc1cnc(C(=O)Nc2nc(-c3ccco3)c(C(=O)C3CCOCC3)s2)cn1 [Compound 415]"
readout = "melting point"
obs_value = "130 to 131 °C"

[[record]]
molecule = "N#Cc1ccc(C(=O)Nc2nc(-c3ccco3)c(C(=O)c3ccccn3)s2)cc1 [Compound 114]"
readout = "melting point"
obs_value = "232 to 235 °C"

[[record]]
molecule = "O=C(CN1CCC2(CC1)OCCO2)Nc1nc(-c2ccco2)c(C(=O)c2ccccn2)s1 [Compound 177]"
readout = "melting point"
obs_value = "188 to 204 °C"

[[record]]
molecule = "Cc1cc(C(=O)Nc2nc(-c3ccco3)c(C(=O)C3CCOCC3)s2)ccn1 [Compound 405]"
readout = "melting point"
obs_value = "169 to 173 °C"

[[record]]
molecule = "Cc1cccc(C(=O)Nc2nc(-c3ccco3)c(C(=O)C3CCOCC3)s2)c1 [Compound 364]"
readout = "melting point"
obs_value = "197 to 201 °C"

[[record]]
molecule = "O=C(Nc1nc(-c2ccco2)c(C(=O)c2ccccn2)s1)OC1CCC1 [Compound 159]"
readout = "melting point"
obs_value = "152 to 153 °C"

